System: Amaranthus retroflexus (AMARE)
protocol: Pre-emergence Test (Table B1)
Format: in vivo
condition_notes: lower rate of 250 g per hectare, evaluated after 13 days
reported_endpoint: percentage damage caused to the plant, AMARE

Please review the following examples before continuing.
> print(dat)
                                   compound                    study.system         result
1  CCn1c(C)c(-c2cc(C(=O)OC(C)CC(=O)OC)c(Cl)cc2F)c(=O)c(C(=O)O)c1-c1ccc(Cl)c(Cl)c1 (stereo not drawn)  Amaranthus retroflexus (AMARE)   3 (3=41-60%)
2  C#CCC(C)OC(=O)c1cc(-c2c(C)n(CC)c(-c3ccc(Cl)c(Cl)c3)c(C(=O)O)c2=O)c(F)cc1Cl (stereo not drawn)  Amaranthus retroflexus (AMARE)   2 (2=21-40%)
3  CC#CC(C)OC(=O)c1cc(-c2c(C)n(CC)c(-c3ccc(Cl)c(Cl)c3)c(C(=O)O)c2=O)c(F)cc1Cl (stereo not drawn)  Amaranthus retroflexus (AMARE)  5 (5=81-100%)
4  CCn1c(C)c(-c2cc(C(=O)OC3CC3)c(Cl)cc2F)c(=O)c(C(=O)O)c1-c1ccc(C#N)c(F)c1  Amaranthus retroflexus (AMARE)  5 (5=81-100%)
5  CCn1c(C)c(-c2cc(C(=O)OC(C)C#N)c(Cl)cc2F)c(=O)c(C(=O)O)c1-c1ccc(Cl)c(Cl)c1 (stereo not drawn)  Amaranthus retroflexus (AMARE)  5 (5=81-100%)

Now consider a different compound.
Req: Could you tell me which percentage damage caused to the plant, AMARE is on file for CCn1c(C)c(-c2cc(C(=O)OC3CC3)c(Cl)cc2F)c(=O)c(C(=O)O)c1-c1ccc(C#N)c(Cl)c1 ?
Resp: 5 (5=81-100%)

Origin of measurements: patent US20260060250A1
